Assay: pKaH (pKa of the conjugate acid) by titration with sodium hydroxide aqueous solution
Assay type: physicochemical
Details: water/methanol=50/50 (volume ratio), 25° C., Table 2
For each of the molecules below, state its pKaH of compound B.
Please respond with just the number, no unit label.

Input line: May I ask what pKaH of compound B has been recorded for c1ccc2cnccc2c1 ?
Output line: 4.7

Input line: // query pKaH of compound B value for entry Cc1ccnc2ccccc12
Output line: 5.1

Input line: Look up pKaH of compound B: Cc1cc2ccccc2cn1
Output line: 5.2

Input line: # pKaH of compound B lookup, item Cc1ccc2ccccc2n1
Output line: 4.8

Input line: Would you mind telling me what pKaH of compound B value was observed for c1ccc2ncccc2c1 ?
Output line: 4.2

Input line: Quick one: pKaH of compound B for Cc1cc(C)c2ccccc2n1 ?
Output line: 5.7

Source of measurements: patent US20240329286A1
